- Study System: T1, human GFRα1 expressed with only a C-terminal human Fc tag (human)
- T1 construct: also called hGFRα1-hFc
- T1 sequence (chain, as listed by the source limits assumed): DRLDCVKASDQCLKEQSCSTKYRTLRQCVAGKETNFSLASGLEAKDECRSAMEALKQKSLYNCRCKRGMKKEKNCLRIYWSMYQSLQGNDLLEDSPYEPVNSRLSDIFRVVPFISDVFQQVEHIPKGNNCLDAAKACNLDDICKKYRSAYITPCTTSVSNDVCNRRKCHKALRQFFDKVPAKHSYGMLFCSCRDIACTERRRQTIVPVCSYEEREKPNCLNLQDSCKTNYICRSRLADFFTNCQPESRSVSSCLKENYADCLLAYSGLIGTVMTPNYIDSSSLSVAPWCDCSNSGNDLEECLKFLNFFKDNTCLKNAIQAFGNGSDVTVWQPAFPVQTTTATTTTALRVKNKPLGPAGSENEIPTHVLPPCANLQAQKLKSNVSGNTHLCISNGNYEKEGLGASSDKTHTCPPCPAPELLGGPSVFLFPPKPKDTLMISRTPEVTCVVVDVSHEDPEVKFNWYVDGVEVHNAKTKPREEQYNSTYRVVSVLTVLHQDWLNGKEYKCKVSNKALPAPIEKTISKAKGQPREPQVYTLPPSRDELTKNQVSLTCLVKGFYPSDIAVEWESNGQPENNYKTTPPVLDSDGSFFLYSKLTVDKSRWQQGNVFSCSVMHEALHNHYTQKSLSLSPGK
- Test Method Notes: BLI Octet, antigen on anti-hFc tips, 100 ug/mL Ab
- Experimental: The ability of anti-GFRα3 antibodies to bind to GDNF-family receptors was assessed using an Octet Red biosensor (Fortebio, Inc.). […] The binding response (measured in units of nm) at each step of the experiment was monitored and recorded.
Bound (nm) listing for selected binders.
Answer with a number only, understood to be in nm.

Record excerpt, results attached:
Binder	Measurement Units	Bound (nm)
H4H2294S (antibody, human IgG4, V domains shown, human IgG4 Fc (H4H)) VH: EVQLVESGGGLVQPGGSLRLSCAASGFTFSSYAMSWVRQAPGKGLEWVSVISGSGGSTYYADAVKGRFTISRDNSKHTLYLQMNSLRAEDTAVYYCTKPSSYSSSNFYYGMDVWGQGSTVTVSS VL: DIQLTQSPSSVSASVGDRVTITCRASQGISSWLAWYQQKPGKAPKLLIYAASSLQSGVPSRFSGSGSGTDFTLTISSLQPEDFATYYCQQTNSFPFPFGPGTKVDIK	nm	0.04
H4H2352S (antibody, human IgG4, V domains shown, human IgG4 Fc (H4H); also called H4H2352S-1) VH: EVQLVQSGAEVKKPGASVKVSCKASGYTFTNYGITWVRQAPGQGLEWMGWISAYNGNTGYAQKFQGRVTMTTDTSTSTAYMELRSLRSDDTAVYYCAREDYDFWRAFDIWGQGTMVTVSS VL: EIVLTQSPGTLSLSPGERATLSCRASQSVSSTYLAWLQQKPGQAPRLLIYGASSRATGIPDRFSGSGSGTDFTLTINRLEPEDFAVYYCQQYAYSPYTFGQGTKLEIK	nm	0.02
H4H2243N2 (antibody, human IgG4, V domains shown, human IgG4 Fc (H4H)) VH: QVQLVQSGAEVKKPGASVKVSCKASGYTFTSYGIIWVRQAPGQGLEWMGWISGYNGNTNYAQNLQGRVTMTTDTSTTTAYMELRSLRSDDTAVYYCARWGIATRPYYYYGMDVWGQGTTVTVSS VL: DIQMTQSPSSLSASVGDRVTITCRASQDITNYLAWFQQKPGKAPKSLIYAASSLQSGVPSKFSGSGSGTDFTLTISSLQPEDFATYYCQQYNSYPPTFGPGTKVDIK	nm	0.03

Now let's try a different one.
Exam item: Dear colleague, I am looking for the recorded Bound (nm) of the following binder: H4H2342P (antibody, human IgG4, V domains shown, human IgG4 Fc (H4H)) VH: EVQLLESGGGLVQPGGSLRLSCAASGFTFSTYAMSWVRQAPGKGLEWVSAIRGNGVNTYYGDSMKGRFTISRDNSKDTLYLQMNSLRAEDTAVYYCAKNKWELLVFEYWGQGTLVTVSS VL: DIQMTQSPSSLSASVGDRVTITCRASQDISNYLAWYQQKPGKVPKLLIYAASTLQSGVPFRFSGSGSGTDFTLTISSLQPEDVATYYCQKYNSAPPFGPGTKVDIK
Marked response: 0.06

Cited source for all entries: patent US20140056903A1
